# target_or_test_system: T1, Human ST2-his (human, UniProt Q01638-2 19-328, limits assumed)
# T1 construct: Expressed in CHO-K1; The printed range starts at Met1; also called human ST2 fused with a 6-histidine tag at the C-terminus
# T1 sequence: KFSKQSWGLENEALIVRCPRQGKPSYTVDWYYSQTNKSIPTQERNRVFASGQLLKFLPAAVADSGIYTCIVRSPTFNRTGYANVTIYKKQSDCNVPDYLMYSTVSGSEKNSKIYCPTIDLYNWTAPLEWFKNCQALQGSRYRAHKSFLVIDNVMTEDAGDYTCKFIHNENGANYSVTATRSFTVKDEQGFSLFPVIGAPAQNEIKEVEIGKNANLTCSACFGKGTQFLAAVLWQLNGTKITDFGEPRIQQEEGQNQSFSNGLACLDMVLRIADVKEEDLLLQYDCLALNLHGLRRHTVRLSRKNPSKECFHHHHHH
# assay_name: SPR Biacore X100, antibody captured on protein A chip, human ST2-his injected, dissociation at pH 5.5
koff by entry:
Output spec: scalar in s⁻¹, unitless text.

1) 5888-153-H3L2 (antibody, human IgG4 S228P, kappa, V domains shown, Humanized antibody) VH: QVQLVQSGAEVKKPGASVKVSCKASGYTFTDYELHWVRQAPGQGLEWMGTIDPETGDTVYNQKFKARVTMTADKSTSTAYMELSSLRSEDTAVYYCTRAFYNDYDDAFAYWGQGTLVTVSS VL: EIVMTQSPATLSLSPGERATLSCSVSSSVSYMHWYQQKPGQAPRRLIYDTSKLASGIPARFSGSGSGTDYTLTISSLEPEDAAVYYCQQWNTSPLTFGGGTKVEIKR; 0.000245

Now look at this one.
In: Quick check: koff of 5886-156-H1L0 (antibody, human IgG4 S228P, kappa, V domains shown, Humanized antibody expressed in CHO-K1, purified by protein A) VH: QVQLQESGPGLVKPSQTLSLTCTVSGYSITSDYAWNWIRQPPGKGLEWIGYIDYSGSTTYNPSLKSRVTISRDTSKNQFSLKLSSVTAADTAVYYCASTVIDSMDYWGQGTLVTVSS VL: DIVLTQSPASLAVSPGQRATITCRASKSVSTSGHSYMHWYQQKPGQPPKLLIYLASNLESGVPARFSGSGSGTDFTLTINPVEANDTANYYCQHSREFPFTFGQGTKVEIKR ?
Out: 0.000279
